Data origin, for the record: paper PMC10786891

Target: T1, EsCas13d, nuclease-dead (Eubacterium siraeum, UniProt B0MS50, R295A;H300A;R849A;H854A)
T1 sequence: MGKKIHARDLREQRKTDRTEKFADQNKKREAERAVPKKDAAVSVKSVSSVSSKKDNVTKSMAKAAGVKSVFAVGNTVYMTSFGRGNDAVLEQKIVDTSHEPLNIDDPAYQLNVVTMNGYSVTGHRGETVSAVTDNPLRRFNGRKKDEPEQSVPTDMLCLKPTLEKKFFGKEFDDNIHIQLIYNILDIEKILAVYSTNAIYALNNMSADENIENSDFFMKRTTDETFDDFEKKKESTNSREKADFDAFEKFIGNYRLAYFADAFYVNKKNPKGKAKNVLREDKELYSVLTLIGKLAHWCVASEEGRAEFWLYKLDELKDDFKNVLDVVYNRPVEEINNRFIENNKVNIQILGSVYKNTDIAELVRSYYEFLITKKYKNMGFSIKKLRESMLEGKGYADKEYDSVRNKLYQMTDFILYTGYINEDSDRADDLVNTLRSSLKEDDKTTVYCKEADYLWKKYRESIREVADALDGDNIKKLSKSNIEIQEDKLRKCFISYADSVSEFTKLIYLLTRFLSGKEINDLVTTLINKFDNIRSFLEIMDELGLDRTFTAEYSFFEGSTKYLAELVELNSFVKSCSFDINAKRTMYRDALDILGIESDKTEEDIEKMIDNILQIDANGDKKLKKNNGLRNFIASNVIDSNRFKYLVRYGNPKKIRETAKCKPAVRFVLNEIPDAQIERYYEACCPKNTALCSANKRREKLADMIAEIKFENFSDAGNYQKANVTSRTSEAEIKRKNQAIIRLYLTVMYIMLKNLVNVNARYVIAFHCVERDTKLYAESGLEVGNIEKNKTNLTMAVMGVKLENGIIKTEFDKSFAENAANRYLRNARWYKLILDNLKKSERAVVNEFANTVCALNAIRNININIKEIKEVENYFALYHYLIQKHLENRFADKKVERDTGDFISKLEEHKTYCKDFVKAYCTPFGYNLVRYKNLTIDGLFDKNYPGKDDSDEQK
Assay: crRNA (strand 1, pre-loaded); Mg2+; 40 mM Tris-HCl pH 7.5, 150 mM NaCl, 6 mM MgCl2, 1 mM DTT, 0.1% Tween-20, 0.2 mg/ml BSA; 25 C; 10 min per concentration, then washed
Conditions: tags: His6-TwinStrep-SUMO cleaved; N-terminal SNAP kept (SNAP-Surface 488); label: 3' end held by stalled T7 RNA polymerase
Readout: pKd
Give bare numbers, as −log10 of the molar value.

A selection of reference data follows.
| Binder | pKd |
| --- | --- |
| target 1 insA 3' of 21,insA 3' of 6 (mixed) RNA 1: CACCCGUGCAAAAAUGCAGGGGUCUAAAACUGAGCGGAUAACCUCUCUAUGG RNA 2: GGGAAUGGAUCCACAUCUACGAAUUCGUACCAAUAGAGAGGUUAUCCAGCUCACCGAGAUCGGAAGAGCACACGU | 7.66 |
| target 1 U10C,C21U (mixed) RNA 1: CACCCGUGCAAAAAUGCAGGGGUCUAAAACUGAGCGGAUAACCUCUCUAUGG RNA 2: GGGAAUGGAUCCACAUCUACGAAUUCGUACUAUAGAGAGGUCAUCCGCUCACCGAGAUCGGAAGAGCACACGU | 8.07 |
| target 3 U2G,U10A (mixed) RNA 1: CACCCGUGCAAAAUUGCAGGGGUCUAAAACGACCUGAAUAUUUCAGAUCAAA RNA 2: GGGAAUGGAUCCACAUCUACGAAUUCGUUUUUGAUCUGAAAAAUUCAGGGCUGCAGAUCGGAAGAGCACACGU | 7.20 |

Lab note: next binder to report on.
Please give the measured pKd for this binder: target 2 MT 5'PFS GCA 3'PFS CUU (mixed) RNA 1: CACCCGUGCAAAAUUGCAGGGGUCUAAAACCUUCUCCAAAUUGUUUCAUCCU RNA 2: GGGAAUGGAUCCACAUCUACGAAUUCGCAAGGAUGAAACAAUUUGGAGAAGCUUAGAUCGGAAGAGCACACGU 7.80
